Just for reference, patent US20250320312A1 is where these values come from.

- subjectOfTest: Peptide 5: Biotin-…-[Tyr(PC)]-acid
- Sequence (peptide, as listed by the source): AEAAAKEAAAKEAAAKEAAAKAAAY
- measurementProtocol: scFv ELISA
Record form. Attribute: OD450. Fill in for each entry.
Numbers only, in OD450.

PcOxP_DB04_A11 (scFv, V domains shown, scFv in periplasmic extract) VH: EVQLLESGGGLVQPGGSLRLSCAASGFTFSDYYMEWVRQAPGKGLEWVAASRNKANTYTTEYADSVKGRFTISRDNSKNTLYLQMNSLRAEDTAVYYCARDYYGSSYWYFDVWGQGTLVTVSS VL: DIVMTQSPDSLAVSLGERATINCTASESVLSSKHKKNYLAWYQQKPGQPPKLLIYGASTRYIGVPDRFSGSGSGTDFTLTISSLQAEDVAVYYCAQFYSYPLTFGGGTKVEIK: 1.6
PcOxP_DB01_D01 (scFv, V domains shown, scFv in periplasmic extract) VH: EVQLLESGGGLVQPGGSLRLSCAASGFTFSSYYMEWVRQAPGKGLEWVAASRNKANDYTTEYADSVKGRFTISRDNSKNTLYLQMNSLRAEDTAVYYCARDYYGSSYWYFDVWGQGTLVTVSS VL: DIVMTQSPDSLAVSLGERATINCTASESLYSPKHKVHYLAWYQQKPGQPPKLLIYGASNRYIGVPDRFSGSGSGTDFTLTISSLQAEDVAVYYCAQFYIYPLTFGGGTKVEIK: 1.12
PcOxP_DB02_C12 (scFv, V domains shown, scFv in periplasmic extract) VH: EVQLLESGGGLVQPGGSLRLSCAASGFTFSDHYMEWVRQAPGKGLEWVAASRNKANDYTTEYADSVKGRFTISRDNSKNTLYLQMNSLRAEDTAVYYCARDYYGSSYWYFDVWGQGTLVTVSS VL: DIVMTQSPDSLAVSLGERATINCTASESLYSSKHKVHYLAWYQQKPGQPPKLLIYGAHNRYIGVPDRFSGSGSGTDFTLTISSLQAEDVAVYYCANFYSYPLTFGGGTKVEIK: 1.58
PcOxP_DB01_B02 (scFv, V domains shown, scFv in periplasmic extract) VH: EVQLLESGGGLVQPGGSLRLSCAASGGTFSDFYMEWVRQAPGKGLEWVAASRNKANSYTTAYADSVKGRFTISRDNSKNTLYLQMNSLRAEDTAVYYCARDYYGSSYWYFDVWGQGTLVTVSS VL: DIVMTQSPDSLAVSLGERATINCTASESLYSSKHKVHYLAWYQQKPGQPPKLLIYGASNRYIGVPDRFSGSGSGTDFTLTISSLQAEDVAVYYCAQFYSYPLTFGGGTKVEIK: 1.41

Tell us which OD450 value is on record for PcOxP_DB03_C04 (scFv, V domains shown, scFv in periplasmic extract) VH: EVQLLESGGGLVQPGGSLRLSCAASGFTFSDFYMEWVRQAPGKGLEWVAASRNKANDYTTEYADSVKGRFTISRDNSKNTLYLQMNSLRAEDTAVYYCARDYYGSSYWYNDVWGQGTLVTVSS VL: DIVMTQSPDSLAVSLGERATINCTASESLYSSKHKVHYLAWYQQKPGQPPKLLIYGASNRYIGVPDRFSGSGSGTDFTLTISSLQAEDVAVYYCAQFYTYPLTFGGGTKVEIK 1.72
